Overview of reported pIC50 across a group of molecules:
- Tested On: uMEK/BRAF (Homo sapiens (Human), UniProt Q02750)
- Sequence (Q02750 whole entry): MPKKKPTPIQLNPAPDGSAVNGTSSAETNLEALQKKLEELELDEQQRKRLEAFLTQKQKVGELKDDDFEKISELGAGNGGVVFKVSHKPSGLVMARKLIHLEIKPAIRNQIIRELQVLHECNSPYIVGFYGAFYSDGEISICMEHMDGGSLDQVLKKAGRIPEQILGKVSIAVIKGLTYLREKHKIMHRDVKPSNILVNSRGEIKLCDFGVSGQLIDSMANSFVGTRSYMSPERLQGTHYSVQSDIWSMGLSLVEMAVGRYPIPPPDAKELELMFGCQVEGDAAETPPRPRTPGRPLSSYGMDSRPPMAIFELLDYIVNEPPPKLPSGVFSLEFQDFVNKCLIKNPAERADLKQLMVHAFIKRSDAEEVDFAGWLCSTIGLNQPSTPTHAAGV
- Assay: MEK-RAF Binding Assay (uMEK/BRAF HTRF)
pIC50: −log10 of the molar value.

Solved entries:
{"Molecule": "COCCNS(=O)(=O)Nc1cccc(Oc2c(C(=O)NC3CC3)c(Nc3ccc(I)cc3F)n(C)c(=O)c2C)c1Cl [Compound I-55]", "pIC50": "> 7.00"}
{"Molecule": "CNS(=O)(=O)Nc1cccc(Oc2c(C(=O)NC3CC3)c(Nc3ccc(I)cc3F)n(C)c(=O)c2C)c1 [Compound I-5]", "pIC50": "> 7.00"}
{"Molecule": "CNS(=O)(=O)Nc1cc(C)cc(Oc2c(C(=O)NC3CC3)c(Nc3ccc(I)cc3F)n(C)c(=O)c2C)c1 [Compound I-21]", "pIC50": "6.00 to 7.00"}

Okay, now this molecule:
For the molecule CNS(=O)(=O)Nc1ccc(OC)c(Oc2c(C(=O)NC3CC3)c(Nc3ccc(I)cc3F)n(C)c(=O)c2C)c1 [Compound I-26] , what pIC50 is on record?
5.00 to 6.00

###

- Assay: Cassette pharmacokinetics studies in mice
- Assay type: in vivo
- Measurement Conditions: male, Balb/c, plasma; Mouse, IV, 2 mg/kg
Assay Readout: AUC(0-inf) (ng·h/mL)

a = CNS(=O)(=O)Nc1cccc(Oc2c(C(=O)NC3CC3)c(Nc3ccc(I)cc3F)n(C)c(=O)c2C)c1Cl [Compound I-2]
b = CNS(=O)(=O)Nc1cccc(Oc2c(C(=O)NC3CC3)c(Nc3ccc(I)cc3F)n(C)c(=O)c2C)c1OC [Compound I-1]
Of a and b , which one carries the higher reported AUC(0-inf)? Your choice should be expressed through its label.
a

###

- Assay: Pharmacokinetics in rat
- Assay type: in vivo
- Measurement Conditions: plasma, IV, 1 mg/kg
Assay Readout: clearance (mL/min/kg)

{"Compound": "Cc1c(Oc2cccc(NS(=O)(=O)NC3CC3)c2Cl)c(C(=O)NC2CC2)c(Nc2ccc(I)cc2F)n(C)c1=O [Compound I-42]", "Measure Unit": "mL/min/kg", "clearance": 76.8}

I = CNS(=O)(=O)Nc1cccc(Oc2c(C(=O)NC3CC3)c(Nc3ccc(I)cc3F)n(C)c(=O)c2C)c1Cl [Compound I-2]
II = Cc1c(Oc2cccc(NS(=O)(=O)NCC(F)(F)F)c2Cl)c(C(=O)NC2CC2)c(Nc2ccc(I)cc2F)n(C)c1=O [Compound I-46]
Of I and II , which one carries the higher reported clearance? Your choice should be expressed through its label.
I

###

- Tested On: MEK1-CRAF complex (Homo sapiens (Human), UniProt Q02750)
- Sequence (P04049 whole entry partner, looked up, one chain of several): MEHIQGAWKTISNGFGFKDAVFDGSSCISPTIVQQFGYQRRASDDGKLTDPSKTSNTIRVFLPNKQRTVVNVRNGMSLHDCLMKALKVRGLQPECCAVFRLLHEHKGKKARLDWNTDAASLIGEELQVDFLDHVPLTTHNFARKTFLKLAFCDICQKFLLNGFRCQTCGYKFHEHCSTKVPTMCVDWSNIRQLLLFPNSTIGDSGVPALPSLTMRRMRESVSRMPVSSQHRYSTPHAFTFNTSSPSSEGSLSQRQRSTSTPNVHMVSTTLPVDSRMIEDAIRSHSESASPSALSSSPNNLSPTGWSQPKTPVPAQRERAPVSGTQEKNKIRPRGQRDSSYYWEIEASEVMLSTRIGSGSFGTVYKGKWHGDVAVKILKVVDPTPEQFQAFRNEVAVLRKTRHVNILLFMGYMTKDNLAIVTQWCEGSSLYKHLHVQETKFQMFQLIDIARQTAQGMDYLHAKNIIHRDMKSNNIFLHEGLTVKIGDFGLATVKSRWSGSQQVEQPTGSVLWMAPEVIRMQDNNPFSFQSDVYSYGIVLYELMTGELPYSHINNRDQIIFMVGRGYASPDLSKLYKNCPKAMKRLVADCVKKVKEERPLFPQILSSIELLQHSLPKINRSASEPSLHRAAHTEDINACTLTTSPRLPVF
- Assay: Stabilization of MEK1-CRAF complex assay (AlphaLISA)
- Type: binding
- Measurement Conditions: compound 1 μM
Assay Readout: KD Ratio (mean), compound to DMSO

{"Smiles": "COCCNS(=O)(=O)Nc1cccc(Oc2c(C(=O)NC3CC3)c(Nc3ccc(I)cc3F)n(C)c(=O)c2C)c1Cl", "KD Ratio (mean), compound to DMSO": 0.51}
{"Smiles": "Cc1c(Oc2cccc(NS(=O)(=O)NC3CC3)c2Cl)c(C(=O)NC2CC2)c(Nc2ccc(I)cc2F)n(C)c1=O", "KD Ratio (mean), compound to DMSO": 0.57}
{"Smiles": "CNS(=O)(=O)Nc1cccc(Oc2c(C(=O)NC3CC3)c(Nc3ccc(I)cc3F)n(C)c(=O)c2C)c1OC(F)(F)F", "KD Ratio (mean), compound to DMSO": 0.47}
{"Smiles": "CNS(=O)(=O)Nc1cccc(Oc2c(C(=O)NCC(F)(F)F)c(Nc3ccc(I)cc3F)n(C)c(=O)c2C)c1Cl", "KD Ratio (mean), compound to DMSO": 0.38}
{"Smiles": "CNS(=O)(=O)Nc1cccc(Oc2c(C(=O)NC3CC3)c(Nc3ccc(I)cc3F)n(C)c(=O)c2C)c1OC", "KD Ratio (mean), compound to DMSO": 0.42}

A = CCNS(=O)(=O)Nc1cccc(Oc2c(C(=O)NC3CC3)c(Nc3ccc(I)cc3F)n(C)c(=O)c2C)c1Cl
B = CCNC(=O)c1c(Oc2cccc(NS(=O)(=O)NC)c2Cl)c(C)c(=O)n(C)c1Nc1ccc(I)cc1F
Of A and B , which one carries the higher reported KD Ratio (mean), compound to DMSO? Your choice should be expressed through its label.
A
